Taken from PubChem BioAssay (NCI).

Each record here notes measured growth.
- System: SK-OV-3 ovarian
- Assay Details: NCI-60 one-dose screen, 48 h (100 = growth as untreated, 0 = no growth, -100 = all killed)
- Run Parameters: 10 µM unless noted
- Procedure: Growth inhibition of the SK-OV-3 human tumor cell line is measured as a screen for anti-cancer activity. Cells are grown in 96 well plates and exposed to the test compound for 48 hours. Compounds are tested at a single concentration, which is 10^-5 M for most compounds. The reported endpoint is percent growth (GI% or GIPRCNT), where numbers from 0 - 100% represent growth inhibition, and numbers from -100% - 0 represent cell death. For example, a value of 40 represents 60% growth inhibition. […]
About 83,000 compounds went through this panel and 20% of them were active in at least one assay; those are over-represented in the sample as a whole.
Readout Kind: growth (%)

Molecule: CCN1C(=O)N(CC)C2C1NN=c1s/c(=C\c3ccc[nH]3)c(=O)n12 (configuration not stated)
Readout Kind: growth
Reported Result: 27.1
--
Molecule: CCCCNc1nnc2n(Cc3ccccc3)c(=O)c3c4c(sc3n12)CCCC4
Readout Kind: growth
Reported Result: 62.5
--
Molecule: O=S(=O)(NCCNc1nccc(-c2c(-c3cccc(O)c3)nc3occn23)n1)c1ccc(Br)cc1
Readout Kind: growth
Reported Result: 29.4
--
Molecule: c1nc2ccc(-c3cc4ccc5[nH]ncc5c4c4c3CCCC4)cc2[nH]1
Readout Kind: growth
Reported Result: 50.2
--
Molecule: Cc1cccc(Oc2ccc(Nc3ncnc4ccc(NC(=O)CN5CCN(C)CC5)cc34)cc2Cl)c1
Readout Kind: growth
Reported Result: 6.73
--
Molecule: CCOC(=O)/C=C1\S/C(=N\Nc2cc(=O)[nH]c3ccccc23)N(c2ccccc2)C1=O
Readout Kind: growth
Reported Result: 101
--
Molecule: COc1ccccc1C(=O)Nc1cccc(NC(=O)c2ccoc2C)c1
Readout Kind: growth
Reported Result: 66.1
--
Molecule: COc1ccc(Oc2nc(Nc3ccc(N4CCOCC4)cc3)ncc2NC(=O)Nc2cc(OC)cc(OC)c2)cc1
Readout Kind: growth
Reported Result: 57.4
--
Molecule: CCOC(=O)c1nn(CC(O)c2ccccc2)c(NC(=O)Nc2cccc(F)c2)c1C (configuration not stated)
Readout Kind: growth
Reported Result: 107
--
Molecule: CC/C=C\C[C@H](O)C/C=C1/C(=O)C=C[C@@H]1C/C=C\CCCC(=O)O
Readout Kind: growth
Reported Result: 116
--
Molecule: O=C(CN1CCCCCC1)Nc1nc2ccc(NCc3ccc(Cl)cc3)cc2s1
Readout Kind: growth
Reported Result: 107
--
Molecule: CCN(CC)CCCN1C(=O)c2c(c(C)c3c(oc4ccc(O)cc43)c2C)C1=O
Readout Kind: growth
Reported Result: 109

====

- Tested on: HCT-15 colon
- Assay Details: NCI-60 one-dose screen, 48 h
- Run Parameters: 10 µM unless noted
Compounds without any hit were thinned out: in the full panel of roughly 83,000, 20% have a hit. Calls of active or inactive are those of the source. Rule for the calls: active = growth percent below 10; inactive = the rest.
Labels: label 1 = active, label 0 = inactive

Compound: COC1=C(C)C(=O)N2[C@@H]1[C@H](c1ccccc1)OC21C=CC(=O)C=C1
System: HCT-15 colon
Classification: label 1
--
Compound: C#Cc1cccc(Nc2nc(C)nc3cc(NC(=O)CCl)ccc23)c1
System: HCT-15 colon
Classification: label 1
--
Compound: CCCCCCCCCCCCCCCCCC1=NC(C)(C)CN1CC(C)O (configuration not stated)
System: HCT-15 colon
Classification: label 0
--
Compound: COC(=O)/C=C1/SC(=Nc2ccc([N+](=O)[O-])cc2)N(CCc2c[nH]c3ccc(O)cc23)C1=O
System: HCT-15 colon
Classification: label 0
--
Compound: C/C=C(/C)n1cnc2c(Nc3ccccn3)nc(Cl)nc21
System: HCT-15 colon
Classification: label 0
--
Compound: Cc1ccc(C)c2c(C)c(C(=O)Nc3cccc(-n4cccn4)c3)oc12
System: HCT-15 colon
Classification: label 0
--
Compound: CCN(CC)Cc1cc(Nc2ccnc3cc(Cl)ccc23)ccc1O
System: HCT-15 colon
Classification: label 0
--
Compound: N#Cc1c(-c2ccccc2)nc(SCc2nnc(-c3ccc(Cl)cc3)o2)[nH]c1=O
System: HCT-15 colon
Classification: label 0
--
Compound: C=CN(C(=O)N1CCN(c2cc3c(cc2F)c(=O)c(C(=O)O)cn3C2CC2)CC1)c1nc(-c2ccc(OC)cc2)cs1
System: HCT-15 colon
Classification: label 0
--
Compound: CCN(CC)CCN1C(=O)c2cccc3c(/C=C/CN4C(=O)c5cccc6cccc(c56)C4=O)ccc(c23)C1=O
System: HCT-15 colon
Classification: label 0
--
Compound: O=c1nc(-c2ccccc2)c2cc(-c3ccc(C(F)(F)F)nc3)ccc2[nH]1
System: HCT-15 colon
Classification: label 0
--
Compound: COc1ccc(C[n+]2c3ccccc3n3c4ccc(N)cc4ccc32)c(OC)c1OC
System: HCT-15 colon
Classification: label 0
--
Compound: CCCC(CC)(C(=O)Nc1ccc2nc(C)cc(N)c2c1)C(=O)Nc1ccc2nc(C)cc(N)c2c1
System: HCT-15 colon
Classification: label 0
--
Compound: O=C(Oc1ccc(CCl)cc1)c1ccccc1
System: HCT-15 colon
Classification: label 1
--
Compound: NC1=Nc2cc(OCCCCN3Cc4ccccc4C3)c(OCC3CC3)cc2C12CCCC2
System: HCT-15 colon
Classification: label 1
--
Compound: COC(=O)c1cc(Br)ccc1O
System: HCT-15 colon
Classification: label 0
--
Compound: COc1cccc(NCc2nnc(Nc3ccc(Cl)cc3)c3ccccc23)c1
System: HCT-15 colon
Classification: label 1
--
Compound: CC(C)CCN(CCC(C)C)CC(O)c1cc2c(c3ccccc13)CCCC2 (configuration not stated)
System: HCT-15 colon
Classification: label 0
--
Compound: COc1cc(/C=C/C(=O)/C=C(O)/C=C/c2ccc(OC(=O)C34CC5CC(CC(C5)C3)C4)c(OC)c2)ccc1OC(=O)C12CC3CC(CC(C3)C1)C2
System: HCT-15 colon
Classification: label 0
--
Compound: O=C(Cc1ccc(NC(=O)c2cccc(Cl)c2)cc1)NCc1ccccc1
System: HCT-15 colon
Classification: label 0
--
Compound: CCOC(=O)CC1CSC(Nc2ccccc2)=N1 (configuration not stated)
System: HCT-15 colon
Classification: label 0
--
Compound: Oc1c(CN2CCCC2)cc(CSCc2ccccc2)c2cccnc12
System: HCT-15 colon
Classification: label 1
--
Compound: Cc1ccc(S(=O)(=O)N2CCC(=O)c3ccccc32)cc1
System: HCT-15 colon
Classification: label 0
--
Compound: CN1CCN(C(=S)SCCCCOc2cc(=O)oc3ccccc23)CC1
System: HCT-15 colon
Classification: label 0
--
Compound: CN(Cc1cnc2nc(N)nc(N)c2n1)c1ccc(C(=O)NC(CCC(=O)O)C(=O)O)cc1Br (configuration not stated)
System: HCT-15 colon
Classification: label 0
--
Compound: C#CCO[C@H]1CC(CC#C)(CC#C)C(=O)[C@@H]2[C@H]1[C@H]1C[C@@H]3[C@@]4(C)CCC[C@@](C)(C(=O)OC)[C@@H]4CC[C@@]23C=C1C(C)C
System: HCT-15 colon
Classification: label 0
--
Compound: C=C1C(=O)O[C@H]2[C@H]1CC/C(CNC(=O)c1c[nH]c3ccc(F)cc13)=C\CC[C@@]1(C)O[C@@H]21
System: HCT-15 colon
Classification: label 1

====

- Test system: SW-620 colon
- Assay Details: NCI-60 one-dose screen, 48 h
- Run Parameters: 10 µM unless noted
This is part of a sample that, as a whole, favours compounds with a hit. Of some 83,000 tested, about 20% had one in any assay. The source made the active and inactive calls. Rule for the calls: active = growth percent below 10; inactive = the rest.
Labels: 1 = active, 0 = inactive

Molecule: CC1(C)CC[C@]23CC[C@]4(C)[C@H](CC[C@@H]5[C@@]6(C)C/C(=C/c7ccncc7)C(=O)C(C)(C)[C@@H]6CC[C@]54C)[C@H]2[C@H]1OC3
System: SW-620 colon
Classification: 0
//
Molecule: Cc1ccc(/C=C/C(=O)Nc2ncc(Cc3ccc(F)cc3)s2)o1
System: SW-620 colon
Classification: 0
//
Molecule: COc1ccc(CNc2c3ccccc3nc3ccccc23)c(OC)c1
System: SW-620 colon
Classification: 0
//
Molecule: CCc1ccc(CCC(=O)Nc2ncc(Cc3ccccc3)s2)o1
System: SW-620 colon
Classification: 0
//
Molecule: Nc1c(C(=O)Nc2cccc(Cl)c2)sc2nc3c(cc12)CCCC3
System: SW-620 colon
Classification: 0
//
Molecule: Oc1c(CN2CCOCC2)cc(COCc2ccccc2)c2cccnc12
System: SW-620 colon
Classification: 0
//
Molecule: COc1ccc(CCN2C(=O)/C(=C/c3ccc(C4Oc5ccccc5C5CC(c6ccccc6)=NN54)cc3)SC2=S)cc1 (stereo unspecified)
System: SW-620 colon
Classification: 0
//
Molecule: COc1ccc(C(=O)Cn2c(C(=O)c3ccc(Cl)cc3)nc3ccccc32)cc1
System: SW-620 colon
Classification: 0
//
Molecule: Cc1c2cccnc2c(C)c2c1c1cc(CO)ccc1n2C
System: SW-620 colon
Classification: 0
//
Molecule: NC1=Nc2cc(OCCCCN3Cc4ccccc4C3)c(OCC3CC3)cc2C12CCCC2
System: SW-620 colon
Classification: 1
//
Molecule: O=S1(=O)C=C(c2ccccc2)C(c2ccccc2)=C1
System: SW-620 colon
Classification: 1
//
Molecule: Fc1cccc(-c2ccc3c(c2)C2(CCNCC2)CN3)c1
System: SW-620 colon
Classification: 0
//
Molecule: CC/C=C\C[C@H](O)C/C=C1/C(=O)C=C[C@@H]1C/C=C\CCCC(=O)O
System: SW-620 colon
Classification: 0
//
Molecule: CCCCCCCC/C=C\CCCCCCCCOc1ccc(CC(=O)NCC[N+]2(C)CCOCC2)cc1
System: SW-620 colon
Classification: 0
//
Molecule: O=C(CCSc1nnc2n(Cc3ccccc3)c(=O)c3c4c(sc3n12)CCCC4)N1CCN(c2ccccc2)CC1
System: SW-620 colon
Classification: 0
//
Molecule: CNC(=O)c1cc(Oc2cccc3nc(NC(=O)Nc4cc(C(F)(F)F)ccc4Cl)ccc23)ccn1
System: SW-620 colon
Classification: 0
//
Molecule: CC[N+]1(CC)CC[N+]2(CCCC(C)CC2)CC1 (stereo unspecified)
System: SW-620 colon
Classification: 0
//
Molecule: C=CCC(CCCC)(C(=O)OCC)C(=O)OCC
System: SW-620 colon
Classification: 0
//
Molecule: Cn1ccc(=O)nc1
System: SW-620 colon
Classification: 0
//
Molecule: O=S(=O)(NCCCNc1nccc(-c2c(-c3cccc(F)c3)nc3occn23)n1)c1ccc(F)cc1
System: SW-620 colon
Classification: 0
//
Molecule: c1ccc2c(c1)CCCc1nnc3nc4ccccc4n3c1-2
System: SW-620 colon
Classification: 0
